# test.protocol: NCI Yeast Anticancer Drug Screen. Data for the mlh1 rad18 strain (AID 175)
# protocol.conditions: S. cerevisiae mlh1 rad18 strain growth inhibition; at 5.0 µM (retest, dose inferred, filed as 0.5)
The panel holds about 79,000 compounds, 15% with a hit somewhere; the sample as a whole holds those more often. Activity calls are given as the source filed them. Rule as the data show it: active = growth inhibition above about 70%; inactive = the rest.
Your answer must be one of the following: active, inactive

As a guide, the following entries are already answered.
O=C1NC(=O)c2ccc([N+](=O)[O-])c3cccc1c23
inactive
O=C1c2ccccc2C(=O)N1CCCC(=O)n1cc(F)c(=O)[nH]c1=O
inactive
CCCOC(=O)C(F)C(Br)C(=O)OCCC (configuration not stated)
active
Cc1cccc(/C=N/NC(=S)N2CCCC2)n1
inactive
CCOC(=O)C1N=[N+](c2ccccc2)C(=O)/C1=C\n1c(=S)[nH]c2ccc([N+](=O)[O-])cc21 (configuration not stated)
inactive

Q. What outcome does the record of this test show for O=[N+]([O-])c1ccc2c(c1)/C(=N/N=C1c3ccccc3Cc3ccccc31)c1cc([N+](=O)[O-])cc([N+](=O)[O-])c1-2 ?
A. inactive

Q. What outcome does the record of this test show for c1ccc2[nH]c(-c3cscn3)nc2c1 ?
A. inactive

Every entry's value here was drawn from PubChem BioAssay (NCI).
